The measured values listed here are drawn from patent US20240279281A1.

Molecular target: T1, interleukin-23 receptor (IL-23R), Q5VWK5
T1 chain: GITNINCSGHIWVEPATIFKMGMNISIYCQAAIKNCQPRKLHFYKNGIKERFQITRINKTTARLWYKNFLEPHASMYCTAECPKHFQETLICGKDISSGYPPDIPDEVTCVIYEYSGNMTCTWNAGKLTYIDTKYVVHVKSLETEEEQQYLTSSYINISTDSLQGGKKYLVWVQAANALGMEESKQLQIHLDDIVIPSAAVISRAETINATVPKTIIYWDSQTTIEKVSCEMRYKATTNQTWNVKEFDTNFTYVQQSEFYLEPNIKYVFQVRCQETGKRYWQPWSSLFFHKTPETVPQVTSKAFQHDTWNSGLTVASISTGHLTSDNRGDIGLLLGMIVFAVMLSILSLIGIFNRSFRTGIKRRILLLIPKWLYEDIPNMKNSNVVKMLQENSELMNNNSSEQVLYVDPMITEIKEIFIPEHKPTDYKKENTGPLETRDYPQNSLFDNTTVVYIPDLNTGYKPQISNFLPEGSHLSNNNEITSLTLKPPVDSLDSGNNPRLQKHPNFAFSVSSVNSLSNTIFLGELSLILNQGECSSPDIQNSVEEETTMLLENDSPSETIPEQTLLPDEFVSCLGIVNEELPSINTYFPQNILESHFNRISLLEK
Assay: cell-based or functional assay
Positions of bridges follow the written chain, without caps; N, C: chain ends. Non-standard residues stand in square brackets, D forms with d. No end group written: not given here. Trp(7-(3-AcNH-Ph)) = CC(=O)Nc1cccc(-c2cccc3c(C[C@H](N)C(=O)O)c[nH]c23)c1; 2Nal(6-OH) = N[C@@H](Cc1ccc2cc(O)ccc2c1)C(=O)O; Trp(7-Me) = Cc1cccc2c(C[C@H](N)C(=O)O)c[nH]c12; dLys(Me3) = C[N+](C)(C)CCCC[C@@H](N)C(=O)O; 3Pal = N[C@@H](Cc1cccnc1)C(=O)O; Pen = CC(C)(S)[C@H](N)C(=O)O; αMeC = C[C@](N)(CS)C(=O)O; Thp = NC1(C(=O)O)CCOCC1; Abu = CC[C@H](N)C(=O)O; Ava = NCCCCC(=O)O; Sar = CNCC(=O)O
recorded-metric: PBMC pSTAT3 IC50

Completed entries (count: 3):
1. [Pen]NT[Trp(7-Me)]K(Ac)[Pen][2‑amino‑3‑(4-(2-aminoethoxy)phenyl)propanoic acid][2‑amino‑3‑(6-hydroxynaphthalen-2-yl)propanoic acid][Thp]K(Ac)N[3Pal][Sar]K (disulfide 1-6 (inferred); not fully specified (residue 14); ends not checked; also: K14: lipidated lysine) [SEQ ID NO: 267] :: < 1 nM
2. [Pen]NT[Trp(7-(3-AcNH-Ph))]K(Ac)[Pen][5‑(4-(2-amino-2-carboxyethyl)phenoxy)‑N,N,N‑trimethylpentan‑1‑aminium][2Nal(6-OH)][Thp]EN[3Pal][Sar] (disulfide 1-6 (inferred); ends not checked) [SEQ ID NO: 63] :: < 0.1 nM
3. [dLys(Me3)]CNT[Trp(7-Me)]K(Ac)[αMeC][2‑amino‑3‑(4-(2-aminoethoxy)phenyl)propanoic acid][2‑amino‑3‑(6-hydroxynaphthalen-2-yl)propanoic acid][Thp]EN[3Pal][Sar] (ends and bridges not checked) [SEQ ID NO: 8] :: < 10 pM

Quick one: PBMC pSTAT3 IC50 of [Ava][Abu]NT[Trp(7-Me)]K(Ac)C[2‑amino‑3‑(4-(2-aminoethoxy)phenyl)propanoic acid][2‑amino‑3‑(6-hydroxynaphthalen-2-yl)propanoic acid][Thp]EN[3Pal][Sar] (ends and bridges not checked) [SEQ ID NO: 171] ?
< 10 pM

Name the reported PBMC pSTAT3 IC50 value associated with the binder K[Pen]NT[Trp(7-Me)]K(Ac)[Pen][2‑amino‑3‑(4-(2-aminoethoxy)phenyl)propanoic acid][2‑amino‑3‑(6-hydroxynaphthalen-2-yl)propanoic acid][Thp]EN[3Pal][Sar] (disulfide 2-7 (inferred); not fully specified (residue 1); ends not checked; also: K1: lipidated lysine, lipid not given here) [SEQ ID NO: 90]
< 0.1 nM
